# system: T1, human programmed cell death protein 1 (hPD-1) C93S (aa 24-167) (Homo sapiens, UniProt Q15116, C93S)
# T1 construct: made as a fusion with a TEV site and human Fc; the Fc was cut off with TEV protease; source: Expi293F, purified (Protein A, TEV cleavage of Fc, SEC; monomer fractions); not shown: Fc (human), C-terminal, cleaved
# T1 sequence (Q15116 24-167 C93S): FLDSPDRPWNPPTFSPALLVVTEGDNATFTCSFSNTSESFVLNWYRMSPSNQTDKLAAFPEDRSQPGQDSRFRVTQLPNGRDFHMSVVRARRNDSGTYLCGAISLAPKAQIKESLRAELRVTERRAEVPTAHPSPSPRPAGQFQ
# test.name: SPR; Carterra LSA; Fab from the ammonium sulfate precipitate of the culture supernatant immobilised on a NiHC200M chip; hPD-1 (1-1024 nM) or mPD-1-Fc (4-1024 nM) as analyte, fourfold dilution series, no regeneration; HBS-EP pH 7.4, 25 °C; medians over the spots of a construct, KD = koff/kon
# measurement.conditions: one partner purified
measured.parameter: pKd
Numbers only, as −log10 of the molar value.

toripalimab Fab L.V99D (Fab, V domains shown, as the heavy chain of Sm3; light chain of Sm3 with this change; numbers count from the chain's first residue; source: Brevibacillus, culture supernatant (ammonium sulfate precipitate); not shown: 6xHis, C-terminal, kept; 6xHN, C-terminal, kept) VH: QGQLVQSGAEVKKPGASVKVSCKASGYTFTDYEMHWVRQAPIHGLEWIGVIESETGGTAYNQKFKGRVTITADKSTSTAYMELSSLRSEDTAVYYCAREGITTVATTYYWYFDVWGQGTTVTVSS VL: DVVMTQSPLSLPVTLGQPASISCRSSQSIVHSNGNTYLEWYLQKPGQSPQLLIYKVSNRFSGVPDRFSGSGSGTDFTLKISRVEAEDVGVYYCFQGSHDPLTFGQGTKLEIK    8.79

[Q] For toripalimab Fab L.V99N (Fab, V domains shown, as the heavy chain of Sm3; light chain of Sm3 with this change; numbers count from the chain's first residue; source: Brevibacillus, culture supernatant (ammonium sulfate precipitate); not shown: 6xHis, C-terminal, kept; 6xHN, C-terminal, kept) VH: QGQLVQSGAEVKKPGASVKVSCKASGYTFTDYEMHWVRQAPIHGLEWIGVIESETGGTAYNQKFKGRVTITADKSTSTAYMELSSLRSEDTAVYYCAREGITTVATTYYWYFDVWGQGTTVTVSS VL: DVVMTQSPLSLPVTLGQPASISCRSSQSIVHSNGNTYLEWYLQKPGQSPQLLIYKVSNRFSGVPDRFSGSGSGTDFTLKISRVEAEDVGVYYCFQGSHNPLTFGQGTKLEIK , write its pKd.
[A] 8.52
